System: c-Src;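 also: 11-residue human phosphosite peptides and single-mutation variants displayed on the E. coli surface, counted by deep sequencing, each peptide's frequency after selection divided by its frequency in the unselected input library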;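 also: frequency after pTyr selection over input frequency; kinase dosed for 20-30% of maximal phosphorylation in three min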
Assay: phosphorylation enrichment, bacterial display (enrichment ratio); higher = better substrate or ligand; peptides without Tyr show the background
Recorded measurements of phosphorylation enrichment, one per entry

Sample answers from the record:
FLTQHYDAKPQ [ANG_Y38] ... 0.609
PLQKTYNHNVL [SLC4A1_Y553_Y555H] ... 0.686
SGDDGYAKDAQ [TENM4_Y1530_K1535Q] ... 0.379
MTKEQYIKMNQ [ARFGEF2_Y797_R802Q] ... 0.341
DYGSGYPNDPK [RNASEH2A_Y210] ... 0.575

Ask: # input sequence: YLQEIHNSNNQ [FGG_Y140_Y140H] ; wanted: its phosphorylation enrichment
Result: 0.414

Ask: Another: IFSGIYFKPES [L2HGDH_Y102_H98Y_YF]
Result: 3.26
